# TEST_TARGET: S. pyogenes SKKanGAS, kanamycin survival, BacTiterGlo, 6 h
# ASSAY_REMARKS: S. pyogenes SKKanGAS kanamycin growth inhibitors – SKKanGAS strain, luminescence, dose confirmation, streptokinase promoter inhibitor project, dose response (AID 1902);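 note: lower survival reflects blocked streptokinase promoter driving kanamycin resistance gene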
The source made the active and inactive calls.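 Rule for the calls: active = EC50 no more than a set limit of log units above the highest dose; inactive = the rest.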
REPORTED_PROPERTY: EC50

[[record]]
molecule = "COc1ccc2ncc(S(=O)(=O)c3ccccc3)c(N3CCN(c4ccccc4)CC3)c2c1"
test_target = "S. pyogenes SKKanGAS, kanamycin survival, BacTiterGlo, 6 h"
reported_result = "3.19 µM"

[[record]]
molecule = "Cc1nc(C)c(C(=O)N/N=C/c2cc(Br)ccc2O)s1"
test_target = "S. pyogenes SKKanGAS, kanamycin survival, BacTiterGlo, 6 h"
reported_result = "2 µM"

[[record]]
molecule = "CC1(C)Cc2nc3sc4c(OCc5ccccc5)ncnc4c3cc2CO1"
test_target = "S. pyogenes SKKanGAS, kanamycin survival, BacTiterGlo, 6 h"
reported_result = "4.19 µM"

[[record]]
molecule = "COc1cc(/C=C2\\SC(=Nc3ccccc3)N(CCc3c[nH]c4ccccc34)C2=O)ccc1OC(C)C(=O)O (centres undefined)"
test_target = "S. pyogenes SKKanGAS, kanamycin survival, BacTiterGlo, 6 h"
reported_result = "1.42 µM"

[[record]]
molecule = "c1ccc(CSC2=NNC(c3ccccn3)S2)cc1 (centres undefined)"
test_target = "S. pyogenes SKKanGAS, kanamycin survival, BacTiterGlo, 6 h"
reported_result = "1.13 µM"

[[record]]
molecule = "COc1cccc(C(=O)Nc2nnc(-c3ccc(F)cc3)o2)c1"
test_target = "S. pyogenes SKKanGAS, kanamycin survival, BacTiterGlo, 6 h"
reported_result = "1.28 µM"

[[record]]
molecule = "COc1ccccc1Oc1cn[nH]c1-c1ccc(OCC(=O)NN)cc1O"
test_target = "S. pyogenes SKKanGAS, kanamycin survival, BacTiterGlo, 6 h"
reported_result = "> 15 µM (inactive)"

[[record]]
molecule = "Cc1ccc(/C=C/C(=O)NC(=S)Nc2ccc(S(=O)(=O)Nc3cc(C)on3)cc2)cc1"
test_target = "S. pyogenes SKKanGAS, kanamycin survival, BacTiterGlo, 6 h"
reported_result = "9.27 µM"

[[record]]
molecule = "Cc1cc(C)n(-c2nc(NCCCO)c3c4c(sc3n2)CCCC4)n1"
test_target = "S. pyogenes SKKanGAS, kanamycin survival, BacTiterGlo, 6 h"
reported_result = "2.2 µM"

[[record]]
molecule = "CN(C)c1nc(SCc2ccccc2Cl)nc2c1CCCC2"
test_target = "S. pyogenes SKKanGAS, kanamycin survival, BacTiterGlo, 6 h"
reported_result = "6.27 µM"

[[record]]
molecule = "CCCCNc1c(-c2ccc(OC)c(SC3CCCCC3)c2)nc2cc(C)ccn12"
test_target = "S. pyogenes SKKanGAS, kanamycin survival, BacTiterGlo, 6 h"
reported_result = "3.89 µM"

[[record]]
molecule = "COc1ccc(O)c(C(=O)CC(=O)c2ccccc2C)c1"
test_target = "S. pyogenes SKKanGAS, kanamycin survival, BacTiterGlo, 6 h"
reported_result = "4.76 µM"

[[record]]
molecule = "O=C(Nc1nnc(C2CC2)o1)c1ccc(S(=O)(=O)N2CCCc3ccccc32)cc1"
test_target = "S. pyogenes SKKanGAS, kanamycin survival, BacTiterGlo, 6 h"
reported_result = "1.34 µM"

[[record]]
molecule = "COc1cccc(/C=N/NC(=O)c2c(C)nc3ccc(Cl)cn23)c1O"
test_target = "S. pyogenes SKKanGAS, kanamycin survival, BacTiterGlo, 6 h"
reported_result = "5.63 µM"

[[record]]
molecule = "Cc1ccccc1Nc1c(-c2ccccn2)nc2c(C)cccn12"
test_target = "S. pyogenes SKKanGAS, kanamycin survival, BacTiterGlo, 6 h"
reported_result = "0.397 µM"

[[record]]
molecule = "C/C(N)=C(/C#N)C(=O)CSc1nc2cc(Cl)ccc2c(=O)n1Cc1ccco1"
test_target = "S. pyogenes SKKanGAS, kanamycin survival, BacTiterGlo, 6 h"
reported_result = "8.74 µM"

[[record]]
molecule = "O=C(c1cnn2c(C(F)(F)F)cc(-c3ccc(F)cc3)nc12)N1CCc2ccccc2C1"
test_target = "S. pyogenes SKKanGAS, kanamycin survival, BacTiterGlo, 6 h"
reported_result = "12.1 µM"

[[record]]
molecule = "C/C(=N\\Nc1nc2ccccc2[nH]1)c1ccc2c(c1)OCO2"
test_target = "S. pyogenes SKKanGAS, kanamycin survival, BacTiterGlo, 6 h"
reported_result = "4.28 µM"

[[record]]
molecule = "CCC1CCCCN1c1cc(C)nc2cc(-c3cccc(C)c3)nn12 (centres undefined)"
test_target = "S. pyogenes SKKanGAS, kanamycin survival, BacTiterGlo, 6 h"
reported_result = "6.59 µM"

[[record]]
molecule = "COc1ccc2c(c1)c(CC(=O)Nc1cccc(S(N)(=O)=O)c1)c(C)n2C(=O)c1ccc(Cl)cc1"
test_target = "S. pyogenes SKKanGAS, kanamycin survival, BacTiterGlo, 6 h"
reported_result = "3.28 µM"

[[record]]
molecule = "O=[N+]([O-])c1ccc(Nc2nc(NCCO)nc(N3CCCC3)n2)cc1"
test_target = "S. pyogenes SKKanGAS, kanamycin survival, BacTiterGlo, 6 h"
reported_result = "5.91 µM"

[[record]]
molecule = "CCSc1nnc(NC(=O)c2ccc3ccccc3n2)s1"
test_target = "S. pyogenes SKKanGAS, kanamycin survival, BacTiterGlo, 6 h"
reported_result = "2.53 µM"

[[record]]
molecule = "CSc1ccc(S(=O)(=O)NCC(=O)OCC(=O)N2CCCC2=O)cc1[N+](=O)[O-]"
test_target = "S. pyogenes SKKanGAS, kanamycin survival, BacTiterGlo, 6 h"
reported_result = "9.29 µM"

[[record]]
molecule = "CC(NC(=O)Cn1c(=O)[nH]c2ccsc2c1=O)C12CC3CC(CC(C3)C1)C2 (centres undefined)"
test_target = "S. pyogenes SKKanGAS, kanamycin survival, BacTiterGlo, 6 h"
reported_result = "> 15 µM (inactive)"

[[record]]
molecule = "CC(=O)Oc1c(-c2ccc(Br)o2)oc2ccccc2c1=O"
test_target = "S. pyogenes SKKanGAS, kanamycin survival, BacTiterGlo, 6 h"
reported_result = "3.34 µM"

[[record]]
molecule = "CN1CCN(C(c2ccc(C(F)(F)F)cc2)c2ccc3cccnc3c2O)CC1 (centres undefined)"
test_target = "S. pyogenes SKKanGAS, kanamycin survival, BacTiterGlo, 6 h"
reported_result = "3.02 µM"

[[record]]
molecule = "Cc1cc(C)c(C)c(S(=O)(=O)N2CCC(C(=O)NNC(=O)c3ccccc3O)CC2)c1C"
test_target = "S. pyogenes SKKanGAS, kanamycin survival, BacTiterGlo, 6 h"
reported_result = "11.8 µM"

[[record]]
molecule = "Cc1[nH]c2ccccc2c1C(=O)COC(=O)c1ccc2c(=O)n3c(nc2c1)CCC3"
test_target = "S. pyogenes SKKanGAS, kanamycin survival, BacTiterGlo, 6 h"
reported_result = "1.52 µM"

[[record]]
molecule = "COc1cccc(C(=O)N/N=C(/c2ccccc2)c2ccccn2)c1"
test_target = "S. pyogenes SKKanGAS, kanamycin survival, BacTiterGlo, 6 h"
reported_result = "8.86 µM"

[[record]]
molecule = "COc1cc([N+](=O)[O-])cc(/C=N/NC(=O)c2cc(-c3ccccc3)nc3ccccc23)c1O"
test_target = "S. pyogenes SKKanGAS, kanamycin survival, BacTiterGlo, 6 h"
reported_result = "3.2 µM"

[[record]]
molecule = "COc1ccc2nc(-n3c(C)ccc3C)sc2c1"
test_target = "S. pyogenes SKKanGAS, kanamycin survival, BacTiterGlo, 6 h"
reported_result = "> 15 µM (inactive)"

[[record]]
molecule = "Clc1ccc(-c2nnnn2-c2ccc(Cl)c(Cl)c2)cc1Cl"
test_target = "S. pyogenes SKKanGAS, kanamycin survival, BacTiterGlo, 6 h"
reported_result = "8.09 µM"

[[record]]
molecule = "COc1ccccc1-c1cc(=O)c2c(O)ccc([N+](=O)[O-])c2o1"
test_target = "S. pyogenes SKKanGAS, kanamycin survival, BacTiterGlo, 6 h"
reported_result = "2.56 µM"

[[record]]
molecule = "Cc1cccc(C(=O)OCC(=O)Nc2nnc(-c3ccccc3)o2)c1O"
test_target = "S. pyogenes SKKanGAS, kanamycin survival, BacTiterGlo, 6 h"
reported_result = "2.2 µM"

